Target: Neu5Ac(a2-3)Gal(b1-3)[Neu5Ac(a2-3)Gal(b1-4)]GlcNAc
Test: glycan array binding signal (z-score within array); higher = stronger binding
Conditions: glycan notation: IUPAC condensed, linker removed
Only a selection was taken, and the strongest signals are over-represented in it overall.
measuredEndpoint: glycan array binding signal (z-score)

{"binder": "Mincle (Homo sapiens), Q9ULY5 (protein) MNSSKSSETQCTERGCFSSQMFLWTVAGIPILFLSACFITRCVVTFRIFQTCDEKKFQLPENFTELSCYNYGSGSVKNCCPLNWEYFQSSCYFFSTDTISWALSLKNCSAMGAHLVVINSQEEQEFLSYKKPKMREFFIGLSDQVVEGQWQWVDGTPLTKSLSFWDVGEPNNIATLEDCATMRDSSNPRQNWNDVTCFLNYFRICEMVGINPLNKGKSL", "measuredNumber": -0.483}
{"binder": "Gal 4 (Canis lupus) (protein) MAYVPAPGYQPTYNPTLPYNKPIPGGLSVGMSVYIQGITSEHMRRFCVNFVAGAHPGSDIAFHFNPRFDGWDKVVFNSHLGGKWGSEEKKRSMPFRKGTHFELVFMVLAEHYKVVVNGNPFYEFGHRLPLQLVTHLQVEGDVELQSINFIGGTQPLGQGPGHTQQQPSSLPTMEGPPVFNPPVPFRKRLQGGLTVRRTVIIKGFVPFTSKSFVINFMVESSGDLALHINPRLTEGLVVRNSCLNGSWGSEDRKLSYNPFIPGQFFDLSIRCGMDRFKVYANGQHLFDFSHRLLALQNVDMLEINGDVTLSYIQV", "measuredNumber": -0.156}
{"binder": "Gal 1 (Mus musculus), P16045 (protein) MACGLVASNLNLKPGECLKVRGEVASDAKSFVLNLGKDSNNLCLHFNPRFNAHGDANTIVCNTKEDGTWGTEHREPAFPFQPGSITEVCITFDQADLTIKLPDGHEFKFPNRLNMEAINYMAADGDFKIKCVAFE", "measuredNumber": 0.068}
